System: Plasmodium falciparum
Measurement Notes: Hit confirmation in dose-response curve in NF54 nanoGlo assay, at 72h
Format: functional, organism-based, Erythrocyte
Parameters: timepoint 72 hour
Measurement Context: Plasmodium falciparum, NF54, Erythrocyte, 72 h
The entries below come with measured pIC50 values attached.
Field pIC50 (float): negative decimal logarithm of the concentration in molar.

Sample answers from the record:
- NCc1cccc(C(=O)N2CCc3cc4ccc3[C@@H]2c2cccc(c2)OCCCNC(=O)c2cc(ccc2O)O4)c1: 5.82
- Cc1nn(-c2nc3ccccc3[nH]2)c2c1[C@@H](c1cccnc1)CC(=O)N2: 5.81
- O[C@@]1(CN2CCC(COc3ccc4c(c3)CCC4)CC2)CCCNC1: 5.67

The recorded pIC50 for entry O=C(COc1ccccc1)Nc1ccc2c(c1)C(O)=Nc1cccnc1O2 equals 5.76

The recorded pIC50 for entry COc1cccc(-c2nn(-c3nc(-c4ccccc4)cc(C(F)(F)F)n3)c(-c3cccc(OC)c3)c2Cl)c1 equals 5.21

The recorded pIC50 for entry CCc1c(C)nn2c(c1C)c(-c1ccccc1)[n+]1c(C)c(CC)c(C)nc21 equals 5.77
